# assayed system: BaF3 cells expressing the target EGFR mutations (Homo sapiens, UniProt P00533, T790M/L858R, cells depend on it)
# Construct: IC50, BAF3 EGFR L858R-T790M PURO POOL; other: BAF3 EGFR L858R-T790M PURO POOL cells, MTT; IC50, BAF3 EGFR L858R-T790M PURO POOL; other: BAF3 EGFR L858R-T790M PURO POOL cells; MTT
# Sequence (P00533 whole entry T790M/L858R): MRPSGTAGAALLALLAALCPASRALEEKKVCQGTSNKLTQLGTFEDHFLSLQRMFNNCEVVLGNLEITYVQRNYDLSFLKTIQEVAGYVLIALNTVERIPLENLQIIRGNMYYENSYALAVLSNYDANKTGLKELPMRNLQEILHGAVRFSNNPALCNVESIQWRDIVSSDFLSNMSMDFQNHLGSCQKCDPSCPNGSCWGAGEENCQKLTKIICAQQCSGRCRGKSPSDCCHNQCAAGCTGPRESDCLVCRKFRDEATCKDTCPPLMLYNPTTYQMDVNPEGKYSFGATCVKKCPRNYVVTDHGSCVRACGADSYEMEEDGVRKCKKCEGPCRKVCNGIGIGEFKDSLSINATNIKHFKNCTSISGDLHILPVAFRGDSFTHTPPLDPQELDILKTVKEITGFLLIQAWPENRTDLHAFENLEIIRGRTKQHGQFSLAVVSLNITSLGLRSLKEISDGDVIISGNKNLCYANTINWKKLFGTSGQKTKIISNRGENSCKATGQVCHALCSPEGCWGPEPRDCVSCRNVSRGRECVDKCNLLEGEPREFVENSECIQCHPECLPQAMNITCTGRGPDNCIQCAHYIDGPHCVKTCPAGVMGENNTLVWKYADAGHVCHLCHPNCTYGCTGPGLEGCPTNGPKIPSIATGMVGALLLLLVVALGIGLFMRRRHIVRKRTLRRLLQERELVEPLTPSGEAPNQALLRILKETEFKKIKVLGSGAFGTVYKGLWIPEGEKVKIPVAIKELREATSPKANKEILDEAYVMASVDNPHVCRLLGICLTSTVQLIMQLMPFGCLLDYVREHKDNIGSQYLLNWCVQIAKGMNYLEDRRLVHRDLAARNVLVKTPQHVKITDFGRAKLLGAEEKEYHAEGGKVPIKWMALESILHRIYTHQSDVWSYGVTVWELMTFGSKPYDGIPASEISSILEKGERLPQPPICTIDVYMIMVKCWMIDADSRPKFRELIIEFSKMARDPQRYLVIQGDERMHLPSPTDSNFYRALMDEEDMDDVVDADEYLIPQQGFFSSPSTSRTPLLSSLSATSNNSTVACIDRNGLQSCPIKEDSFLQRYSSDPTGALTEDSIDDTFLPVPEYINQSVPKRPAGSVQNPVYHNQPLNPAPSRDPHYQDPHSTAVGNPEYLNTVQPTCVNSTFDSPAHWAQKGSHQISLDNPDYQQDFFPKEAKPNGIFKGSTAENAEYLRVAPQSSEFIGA
# assay protocol: Antiproliferative activity (MTT) against BaF3 cells expressing the target EGFR mutations
# Format: cell-based
# cond: BAF3 EGFR L858R-T790M PURO POOL cells, read-out: IC50, BAF3 EGFR L858R-T790M PURO POOL
Below, each entry is listed with its recorded GI50.

Below, each entry is followed by its recorded GI50 result.
1) COc1ccc(NC(=O)CF)cc1Nc1ncc(Cl)c(Nc2ccccc2P(C)(C)=O)n1 | ≥ 250 nM
2) COc1ccc(NC(=O)/C=C/C(=O)N2CCN(C)CC2)cc1Nc1ncc(Cl)c(Nc2ccccc2P(C)(C)=O)n1 | ≥ 250 nM
3) C=CC(=O)Nc1ccc(OC)c(Nc2ncc(Cl)c(Nc3ccc(OCCN(C)C)cc3P(C)(C)=O)n2)c1 | < 50 nM
4) C=CC(=O)Nc1cc(Nc2ncc(Cl)c(Nc3ccccc3P(C)(C)=O)n2)c(OC)cc1OCC(CO)N(C)C (stereo not shown) | ≥ 250 nM
5) C=CC(=O)N1CCc2cc(OC)c(Nc3ncc(Cl)c(Nc4ccccc4P(C)(C)=O)n3)cc21 | ≥ 250 nM
6) C=CC(=O)Nc1cc(Nc2ncc(Cl)c(Nc3ccccc3P(C)(C)=O)n2)c(OC)cc1OC1CCCN(C)C1 (stereo not shown) | < 50 nM

Continue with the next molecule.
Task: // lookup GI50 for `CC#CC(=O)Nc1cc(Nc2ncc(Cl)c(Nc3ccccc3P(C)(C)=O)n2)c(OC)cc1OC1COC1`
Result: 50 to 100 nM

###

# assayed system: BaF3 cells expressing the target EGFR mutations (Homo sapiens, UniProt P00533, T790M, cells depend on it, form not given)
# Construct: IC50, BAF3 EGFR DEL T790M PURO POOL; other: BAF3 EGFR DEL T790M PURO POOL cells, MTT; other: BAF3 EGFR DEL T790M PURO POOL cells; MTT
# Sequence (P00533 with tags, fused parts or gaps DEL746-750/T790M, form open): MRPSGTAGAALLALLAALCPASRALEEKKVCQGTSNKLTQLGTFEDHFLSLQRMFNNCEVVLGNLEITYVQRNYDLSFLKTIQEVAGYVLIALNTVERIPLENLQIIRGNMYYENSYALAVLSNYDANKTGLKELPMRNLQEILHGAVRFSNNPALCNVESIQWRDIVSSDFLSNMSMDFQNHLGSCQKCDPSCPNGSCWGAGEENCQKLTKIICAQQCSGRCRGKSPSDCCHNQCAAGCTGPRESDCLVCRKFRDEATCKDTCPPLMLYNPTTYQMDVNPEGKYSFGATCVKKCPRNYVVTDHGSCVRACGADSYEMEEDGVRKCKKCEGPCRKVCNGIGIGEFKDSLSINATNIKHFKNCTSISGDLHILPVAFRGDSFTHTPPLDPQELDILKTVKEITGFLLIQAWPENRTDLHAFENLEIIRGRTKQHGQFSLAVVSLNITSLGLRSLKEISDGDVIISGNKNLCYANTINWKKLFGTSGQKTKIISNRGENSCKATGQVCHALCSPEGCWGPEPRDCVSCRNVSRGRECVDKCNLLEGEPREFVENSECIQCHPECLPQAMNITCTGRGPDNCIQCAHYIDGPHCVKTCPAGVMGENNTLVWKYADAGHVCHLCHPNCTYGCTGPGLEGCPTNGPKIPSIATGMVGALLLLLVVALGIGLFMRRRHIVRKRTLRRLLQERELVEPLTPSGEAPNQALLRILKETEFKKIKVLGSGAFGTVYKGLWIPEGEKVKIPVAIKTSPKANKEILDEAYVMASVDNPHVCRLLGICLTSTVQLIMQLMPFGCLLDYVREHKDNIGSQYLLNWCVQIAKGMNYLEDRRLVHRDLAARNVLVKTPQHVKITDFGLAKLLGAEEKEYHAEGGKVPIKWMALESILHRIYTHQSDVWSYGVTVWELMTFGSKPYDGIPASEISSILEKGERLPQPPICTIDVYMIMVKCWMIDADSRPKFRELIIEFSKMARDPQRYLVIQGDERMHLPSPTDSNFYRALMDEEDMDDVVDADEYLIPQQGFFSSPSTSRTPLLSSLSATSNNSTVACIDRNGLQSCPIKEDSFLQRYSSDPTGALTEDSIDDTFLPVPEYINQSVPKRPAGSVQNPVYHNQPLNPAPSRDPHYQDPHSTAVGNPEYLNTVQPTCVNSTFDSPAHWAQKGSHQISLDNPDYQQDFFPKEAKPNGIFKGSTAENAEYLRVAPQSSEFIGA
# assay protocol: Antiproliferative activity (MTT) against BaF3 cells expressing the target EGFR mutations
# Type: cell-based
# cond: BAF3 EGFR DEL T790M PURO POOL cells, read-out: IC50, BAF3 EGFR DEL T790M PURO POOL
property name: GI50

Below, each entry is followed by its recorded GI50 result.
1. COc1cc(C)c(NC(=O)CCl)cc1Nc1ncc(Cl)c(Nc2ccccc2P(C)(C)=O)n1 | < 50 nM
2. C=CC(=O)Nc1cc(Nc2ncc(Cl)c(Nc3ccccc3S(=O)(=O)C(C)C)n2)c(OC)cc1C#CCN(C)C | < 50 nM
3. C=C(F)C(=O)Nc1ccc(OC)c(Nc2ncc(Cl)c(Nc3ccccc3P(C)(C)=O)n2)c1 | < 50 nM

Task: // lookup GI50 for `C=CC(=O)Nc1cc(Nc2ncc(Cl)c(Nc3ccccc3P(C)(C)=O)n2)c(OC)cc1N1CCC(N2CCCCC2)CC1`
Result: < 50 nM

Task: // lookup GI50 for `COc1ccc(NC(=O)C#Cc2ccccc2)cc1Nc1ncc(Cl)c(Nc2ccccc2P(C)(C)=O)n1`
Result: < 50 nM

Task: // lookup GI50 for `C=CC(=O)Nc1cc(Nc2ncc(Cl)c(Nc3ccccc3P(C)(C)=O)n2)c(OC)cc1OCCN1CCN(C)CC1`
Result: ≥ 250 nM

Task: // lookup GI50 for `C=CC(=O)Nc1cc(Nc2ncc(Cl)c(Nc3ccccc3P(C)(C)=O)n2)c(OC)cc1OC1CN(C)C1`
Result: 50 to 100 nM

Task: // lookup GI50 for `COc1ccc(NC(=O)/C=C/CN2CCCCC2)cc1Nc1ncc(Cl)c(Nc2ccccc2P(C)(C)=O)n1`
Result: < 50 nM

###

# assayed system: BaF3 cells expressing the target EGFR mutations (Homo sapiens, UniProt P00533, T790M/L858R, cells depend on it)
# Construct: IC50, BAF3 EGFR L858R-T790M PURO POOL; other: BAF3 EGFR L858R-T790M PURO POOL cells, MTT; IC50, BAF3 EGFR L858R-T790M PURO POOL; other: BAF3 EGFR L858R-T790M PURO POOL cells; MTT
# assay protocol: Antiproliferative activity (MTT) against BaF3 cells expressing the target EGFR mutations
# Assay type: cell-based
# cond: BAF3 EGFR L858R-T790M PURO POOL cells, read-out: IC50, BAF3 EGFR L858R-T790M PURO POOL
property name: GI50

Below, each entry is followed by its recorded GI50 result.
1. C=CC(=O)Nc1cc(Nc2ncc(Cl)c(Nc3ccccc3P(C)(C)=O)n2)c(OC)cc1N1CCC(N2CCC(O)C2)C1 (stereo not shown) | ≥ 250 nM
2. C=CC(=O)Nc1cc(Nc2ncc(Cl)c(Nc3ccccc3P(C)(C)=O)n2)c(OC)cc1OC(CF)CN(CC)CC (stereo not shown) | < 50 nM
3. C=CC(=O)Nc1ccc(OC)c(Nc2ncc(Cl)c(Nc3cnccc3P(C)(C)=O)n2)c1 | ≥ 250 nM

Continue with the next compound.
Task: // lookup GI50 for `COc1ccc(NC(=O)/C=C/C2(N)CC2)cc1Nc1ncc(Cl)c(Nc2ccccc2P(C)(C)=O)n1`
Result: ≥ 250 nM

###

Below, each entry is listed with its recorded IC50.
# assayed system: human EGFR (native sequence) (Homo sapiens, UniProt P00533)
# Sequence (P00533 25-1210): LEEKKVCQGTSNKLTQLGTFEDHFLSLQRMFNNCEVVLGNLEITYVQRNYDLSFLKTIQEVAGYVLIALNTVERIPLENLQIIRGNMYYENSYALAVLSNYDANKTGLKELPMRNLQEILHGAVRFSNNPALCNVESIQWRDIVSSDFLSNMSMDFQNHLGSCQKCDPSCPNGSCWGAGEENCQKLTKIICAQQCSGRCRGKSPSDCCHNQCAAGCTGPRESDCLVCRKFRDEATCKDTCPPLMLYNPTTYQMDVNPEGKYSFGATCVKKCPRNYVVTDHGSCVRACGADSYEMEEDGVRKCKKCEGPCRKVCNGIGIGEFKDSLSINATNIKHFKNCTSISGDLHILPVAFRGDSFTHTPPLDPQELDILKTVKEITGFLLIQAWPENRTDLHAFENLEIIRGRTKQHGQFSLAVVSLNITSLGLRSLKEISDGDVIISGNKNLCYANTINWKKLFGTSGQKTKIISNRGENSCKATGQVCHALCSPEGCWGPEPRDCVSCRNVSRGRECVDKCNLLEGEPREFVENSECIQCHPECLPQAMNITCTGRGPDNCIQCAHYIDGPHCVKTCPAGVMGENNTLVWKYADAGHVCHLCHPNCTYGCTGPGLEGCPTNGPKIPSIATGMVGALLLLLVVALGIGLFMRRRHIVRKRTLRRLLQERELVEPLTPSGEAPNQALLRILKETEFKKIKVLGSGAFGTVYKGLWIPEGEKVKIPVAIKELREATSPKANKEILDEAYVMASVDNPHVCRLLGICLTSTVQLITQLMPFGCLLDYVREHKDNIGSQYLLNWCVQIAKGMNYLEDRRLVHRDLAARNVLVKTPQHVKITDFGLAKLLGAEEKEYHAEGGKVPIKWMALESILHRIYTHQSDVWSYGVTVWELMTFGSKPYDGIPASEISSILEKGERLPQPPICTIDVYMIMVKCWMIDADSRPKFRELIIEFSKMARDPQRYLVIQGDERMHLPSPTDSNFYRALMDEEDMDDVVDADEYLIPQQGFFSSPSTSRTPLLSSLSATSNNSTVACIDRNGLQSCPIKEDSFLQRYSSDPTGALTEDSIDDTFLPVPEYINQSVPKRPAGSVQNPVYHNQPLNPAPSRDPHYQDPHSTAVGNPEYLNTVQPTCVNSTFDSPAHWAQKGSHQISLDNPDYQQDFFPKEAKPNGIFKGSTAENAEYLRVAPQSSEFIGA
# assay protocol: Kinase inhibitory activity against human EGFR (native sequence)
# Assay type: biochemical
# cond: 10 pt curves, 3 μM top concentration, 10 μM ATP; read-out: IC50 for kinase inhibition, EGFR

Below, each entry is followed by its recorded IC50 result.
1. C=CC(=O)Nc1cc(Nc2ncc(Cl)c(Nc3ccccc3P(C)(C)=O)n2)c(OC)cc1OC(COC)CN(C)C (stereo not drawn) | < 50 nM
2. C=CC(=O)Nc1cc(Nc2ncc(Cl)c(Nc3ccccc3P(C)(C)=O)n2)c(OC)cc1C#CCN1CCCCC1 | < 50 nM
3. COc1ccc(NS(=O)(=O)CCl)cc1Nc1ncc(Cl)c(Nc2ccccc2P(C)(C)=O)n1 | ≥ 250 nM
4. COc1ccc(NC(=O)CCl)cc1Nc1ncc(Cl)c(Nc2ccccc2P(C)(C)=O)n1 | < 50 nM
5. C=CC(=O)Nc1cc(Nc2ncc(Cl)c(Nc3ccccc3P(C)(C)=O)n2)c(C)cc1OC(COC)CN(C)C (stereo not drawn) [Example 143] | < 50 nM
6. C=CC(=O)Nc1cc(Nc2ncc(Cl)c(Nc3ccccc3P(C)(C)=O)n2)c(CC)cc1C#CCN(C)C | < 50 nM
7. C=CC(=O)Nc1cc(Nc2ncc(Cl)c(Nc3ccccc3P(C)(C)=O)n2)c(C)cc1OC(COC)CN(C)C (stereo not drawn) [Example 144] | < 50 nM
8. COCC#CC(=O)Nc1cc(Nc2ncc(Cl)c(Nc3ccccc3P(C)(C)=O)n2)c(OC)cc1N1CCOCC1 | < 50 nM

Task: // lookup IC50 for `COc1cc(N2CCOCC2)c(NC(=O)C#CCCN(C)C)cc1Nc1ncc(Cl)c(Nc2ccccc2P(C)(C)=O)n1`
Result: < 50 nM

Task: // lookup IC50 for C=CC(=O)Nc1cc(Nc2ncc(Cl)c(Nc3ccccc3P(C)(C)=O)n2)c(Cl)cc1OC(COC)CN(C)C (stereo not drawn) [Example 145]
Result: < 50 nM

Task: // lookup IC50 for `COc1cc(C)c(NC(=O)CCl)cc1Nc1ncc(Cl)c(Nc2ccccc2P(C)(C)=O)n1`
Result: < 50 nM

Task: // lookup IC50 for `C=CC(=O)Nc1cc(Nc2ncc(Cl)c(Nc3ccccc3P(C)(C)=O)n2)c(OC)cc1C`
Result: < 50 nM

Task: // lookup IC50 for `C=CC(=O)Nc1cc(Nc2ncc(Cl)c(Nc3ccccc3P(C)(C)=O)n2)c(OC)cc1C#CC(C)(C)N1CCCC1`
Result: 50 to 100 nM

Task: // lookup IC50 for `CC#CC(=O)Nc1cc(Nc2ncc(Cl)c(Nc3ccccc3P(C)(C)=O)n2)c(OC)cc1N1CCC(N2CCN(C)CC2)CC1`
Result: 50 to 100 nM

Task: // lookup IC50 for `C=CC(=O)Nc1cc(Cc2ncc(Cl)c(Nc3ccccc3P(C)(C)=O)n2)c(OC)cc1C#CCN1CCC(C)CC1`
Result: < 50 nM

###

# assayed system: human EGFR (native sequence) (Homo sapiens)
# assay protocol: Kinase inhibitory activity against human EGFR (native sequence)
# Type: biochemical
# cond: human EGFR native sequence; 10 μM ATP; read-out: IC50 for kinase inhibition, EGFR
Below, each entry is listed with its recorded IC50.

1) C=CC(=O)Nc1cc(Nc2ncc(Cl)c(Nc3ccccc3P(C)(C)=O)n2)c(OC)cc1N1CCC(N(C)C)C1 (centres unmarked) [Example 24] | < 50 nM

Task: // lookup IC50 for COc1cc(F)c(NC(=O)C#CCN(C)C)cc1Nc1ncc(Cl)c(Nc2ccccc2P(C)(C)=O)n1 [Example 87]
Result: < 50 nM

Task: // lookup IC50 for C=CC(=O)Nc1cc(Nc2ncc(Cl)c(Nc3ccccc3P(C)(C)=O)n2)c(OC)cc1N1CCC(N2CCC2)C1 (centres unmarked) [Example 68]
Result: < 50 nM

Task: // lookup IC50 for CCOC(=O)/C=C/C(=O)Nc1ccc(OC)c(Nc2ncc(Cl)c(Nc3ccccc3P(C)(C)=O)n2)c1 [Example 75]
Result: < 50 nM

Task: // lookup IC50 for C=C(F)C(=O)Nc1ccc(OC)c(Nc2ncc(Cl)c(Nc3ccccc3P(C)(C)=O)n2)c1 [Example 77]
Result: ≥ 250 nM

Task: // lookup IC50 for C=CC(=O)Nc1cc(Nc2ncc(Cl)c(Nc3ccccc3P(C)(C)=O)n2)c(OC)cc1N1CCC(N2CCCCC2)CC1 [Example 69]
Result: < 50 nM

Task: // lookup IC50 for C=CC(=O)Nc1cc(Nc2ncc(Cl)c(Nc3ccccc3P(C)(C)=O)n2)c(OC)cc1N1CCC(N(C)CCN(CC)CC)C1 (centres unmarked) [Example 38]
Result: < 50 nM

Task: // lookup IC50 for C=CC(=O)Nc1cc(Nc2ncc(Cl)c(Nc3ccccc3P(C)(C)=O)n2)c(OC)cc1N1CCN(C2CCN(C)CC2)CC1 [Example 27]
Result: < 50 nM

The measurements presented in this section are drawn from patent US9834571B2.
